target entity: human sst2A receptor (Homo sapiens, UniProt P30874)
Construct: expressed in transfected cells; host or cells: HEK293 (HEK-sst2)
experiment notes: Immunofluorescence-based sst2 internalization assay in HEK-sst2 cells
Type: cell-based
measurement setup: n ≧ 2
Bridge positions count the residues as written; N and C are the ends. Square brackets hold non-standard residues; d marks the D form. Peptide text beside a SMILES is read from it. * marks the point of attachment. ξ: configuration not given here. DOTA = O=C(O)CN1CCN(CC(=O)O)CCN(CC(=O)*)CCN(CC(=O)O)CC1; Phe(4-NO2) = N[C@@H](Cc1ccc([N+](=O)[O-])cc1)C(=O)O; dPhe(4-NHCONH2) = NC(=O)Nc1ccc(C[C@@H](N)C(=O)O)cc1; Phe(4-NHCONH2) = NC(=O)Nc1ccc(C[C@H](N)C(=O)O)cc1; Phe(4-Cl) = N[C@@H](Cc1ccc(Cl)cc1)C(=O)O; ξDihydroorotoyl = O=C1CC(C(=O)*)NC(=O)N1; 2Nal = N[C@@H](Cc1ccc2ccccc2c1)C(=O)O; ξPhe(4-NH2) = Nc1ccc(CC(N)C(=O)O)cc1
recorded endpoint: sst2-internalization tested in vitro in HEK-sst2 cells (function)

compound="C[C@@H](O)[C@@H]1NC(=O)[C@H](CCCCN)NC(=O)[C@@H](Cc2ccc(NC(N)=O)cc2)NC(=O)[C@H](Cc2ccc(O)cc2)NC(=O)[C@H](NC(=O)[C@@H](N)Cc2ccc([N+](=O)[O-])cc2)CSSC[C@@H](C(=O)N[C@@H](Cc2ccc3ccccc3c2)C(N)=O)NC1=O [compound 4] (H-[Phe(4-NO2)][dC]Y[dPhe(4-NHCONH2)]KTC[2Nal]-NH2; disulfide 2-7)" target_entity="human sst2A receptor (Homo sapiens, UniProt P30874)" result=Antagonist
compound="C[C@@H](O)[C@@H]1NC(=O)[C@H](CCCCN)NC(=O)[C@@H](Cc2c[nH]c3ccccc23)NC(=O)[C@H](Cc2ccc(NC(N)=O)cc2)NC(=O)[C@H](NC(=O)[C@@H](N)Cc2ccc(Cl)cc2)CSSC[C@@H](C(N)=O)NC1=O [compound 17] (H-[Phe(4-Cl)][dC][Phe(4-NHCONH2)][dW]KTC-NH2; disulfide 2-7)" target_entity="human sst2A receptor (Homo sapiens, UniProt P30874)" result=Antagonist
compound="C[C@@H](O)[C@@H]1NC(=O)[C@H](CCCCN)NC(=O)[C@@H](Cc2ccc(NC(N)=O)cc2)NC(=O)C(Cc2ccc(NC(=O)C3CC(=O)NC(=O)N3)cc2)NC(=O)[C@H](NC(=O)[C@H](Cc2ccc(Cl)cc2)NC(=O)CN2CCN(CC(=O)O)CCN(CC(=O)O)CCN(CC(=O)O)CC2)CSSC[C@@H](C(=O)N[C@@H](Cc2ccc3ccccc3c2)C(N)=O)NC1=O (stereo partly drawn) [Peptide No. 30] ({DOTA}-[Phe(4-Cl)][dC][ξPhe(4-NH2)](ξDihydroorotoyl)[dPhe(4-NHCONH2)]KTC[2Nal]-NH2; disulfide 2-7)" target_entity="human sst2A receptor (Homo sapiens, UniProt P30874)" result=Antagonist

* * *

target entity: UniProtKB P30874
experiment notes: Calcium release assay in HEK-sst2 cells (Fluo-4NW)
Type: cell-based
Parameters: expressed in transfected cells; host or cells: HEK293 (HEK-sst2)
measurement setup: n ≧ 2
Method: Calcium release assay. […] Intracellular calcium mobilization was recorded in a kinetic for 60 sec at room temperature monitoring fluorescence emission at 520 nm (with λex=485 nm) in the presence of the analogues at the concentrations indicated. Maximum fluorescence (Fmax) was measured after the addition of 25 μM ionomycin. […]
Bridge positions count the residues as written; N and C are the ends. Square brackets hold non-standard residues; d marks the D form. Peptide text beside a SMILES is read from it. Phe(4-NHCONH2) = NC(=O)Nc1ccc(C[C@H](N)C(=O)O)cc1; dTrp(5-F) = N[C@H](Cc1c[nH]c2ccc(F)cc12)C(=O)O; Phe(4-Cl) = N[C@@H](Cc1ccc(Cl)cc1)C(=O)O; 2Nal = N[C@@H](Cc1ccc2ccccc2c1)C(=O)O
recorded endpoint: Calcium release tested in vitro in HEK-sst2 cells (function)

molecule=C[C@@H](O)[C@@H]1NC(=O)[C@H](CCCCN)NC(=O)[C@@H](Cc2c[nH]c3ccccc23)NC(=O)[C@H](Cc2ccc(NC(N)=O)cc2)NC(=O)[C@H](NC(=O)[C@H](Cc2ccc(Cl)cc2)NC(=O)CCNC(=O)CN2CCN(CC(=O)O)CCN(CC(=O)O)CCN(CC(=O)O)CC2)CSSC[C@@H](C(=O)N[C@@H](Cc2ccc3ccccc3c2)C(N)=O)NC1=O target_entity="UniProtKB P30874" result=Antagonist
molecule="C[C@@H](O)[C@@H]1NC(=O)[C@H](CCCCN)NC(=O)[C@@H](Cc2c[nH]c3ccc(F)cc23)NC(=O)[C@H](Cc2ccc(NC(N)=O)cc2)NC(=O)[C@H](NC(=O)[C@@H](N)Cc2ccc(Cl)cc2)CSSC[C@@H](C(=O)N[C@@H](Cc2ccc3ccccc3c2)C(N)=O)NC1=O [compound 25] (H-[Phe(4-Cl)][dC][Phe(4-NHCONH2)][dTrp(5-F)]KTC[2Nal]-NH2; disulfide 2-7)" target_entity="UniProtKB P30874" result=Antagonist

* * *

Please go through the items and note down their pIC50.
target entity: hSSTR1 (Homo sapiens, UniProt P30872)
Construct: expressed in transfected cells; host or cells: CHO-K1 or CCL39 cells
Sequence (P30872 whole entry): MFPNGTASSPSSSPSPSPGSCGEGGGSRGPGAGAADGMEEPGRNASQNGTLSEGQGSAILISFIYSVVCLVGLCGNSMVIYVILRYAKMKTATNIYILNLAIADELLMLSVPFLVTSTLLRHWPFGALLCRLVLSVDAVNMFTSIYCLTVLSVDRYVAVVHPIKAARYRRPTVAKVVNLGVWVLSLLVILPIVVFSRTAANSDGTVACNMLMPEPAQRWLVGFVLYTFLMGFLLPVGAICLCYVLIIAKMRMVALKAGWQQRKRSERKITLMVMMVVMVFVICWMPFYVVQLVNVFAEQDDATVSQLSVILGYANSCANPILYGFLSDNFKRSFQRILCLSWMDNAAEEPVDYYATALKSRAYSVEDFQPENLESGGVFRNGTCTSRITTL
experiment notes: Receptor autoradiography, displacement of 125I-[Leu8,D-Trp22,Tyr25]-SRIF-28 from membrane pellet sections
Format: binding
measurement setup: Table 3; mean ± SEM when N ≧ 3; read-out: sst1 binding affinity (IC50)
pIC50: −log10 of the molar value.

Please indicate pIC50 recorded for C[C@@H](O)[C@@H]1NC(=O)[C@H](CCCCN)NC(=O)[C@@H](Cc2c[nH]c3ccccc23)NC(=O)[C@H](Cc2ccc(NC(N)=O)cc2)NC(=O)[C@H](NC(=O)[C@H](Cc2ccc(Cl)cc2)NC(=O)CN2CCN(CC(=O)O)CCN(CC(=O)O)CCN(CC(=O)O)CC2)CSSC[C@@H](C(=O)N[C@@H](Cc2ccc3ccccc3c2)C(N)=O)NC1=O [Peptide No. 14]
< 6.00

Give recorded pIC50. `C[C@@H](O)[C@@H]1NC(=O)[C@H](CCCCN)NC(=O)[C@@H](Cc2c[nH]c3ccccc23)NC(=O)[C@H](Cc2ccc(NC(=O)NO)cc2)NC(=O)[C@H](NC(=O)[C@@H](N)Cc2ccc(Cl)cc2)CSSC[C@@H](C(=O)N[C@@H](Cc2ccc3ccccc3c2)C(N)=O)NC1=O`
< 6.00

Give pIC50 for `C[C@@H](O)[C@@H]1NC(=O)[C@H](CCCCN)NC(=O)[C@@H](Cc2c[nH]c3ccccc23)NC(=O)[C@H](Cc2ccc(NC(N)=O)cc2)NC(=O)[C@H](NC(=O)[C@@H](N)Cc2ccc(Cl)cc2)CSSC[C@@H](C(=O)N[C@@H](CC2CCCCC2)C(N)=O)NC1=O`
< 6.00

* * *

Provide the reported IC50 of each item.
target entity: hSSTR2 (Homo sapiens)
Construct: expressed in transfected cells; host or cells: CHO-K1 or CCL39 cells
Sequence (P30874 whole entry): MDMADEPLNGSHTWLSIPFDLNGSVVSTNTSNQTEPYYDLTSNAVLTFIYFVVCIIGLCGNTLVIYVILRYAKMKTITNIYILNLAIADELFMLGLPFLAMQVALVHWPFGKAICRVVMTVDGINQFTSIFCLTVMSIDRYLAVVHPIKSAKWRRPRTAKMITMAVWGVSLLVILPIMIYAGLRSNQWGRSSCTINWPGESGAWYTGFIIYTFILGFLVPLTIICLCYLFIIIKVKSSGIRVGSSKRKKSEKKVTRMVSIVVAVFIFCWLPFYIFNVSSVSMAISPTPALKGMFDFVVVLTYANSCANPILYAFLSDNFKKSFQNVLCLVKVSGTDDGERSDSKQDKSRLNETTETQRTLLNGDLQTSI
experiment notes: Receptor autoradiography, displacement of 125I-[Leu8,D-Trp22,Tyr25]-SRIF-28 from membrane pellet sections
Format: binding
measurement setup: Table 3; mean ± SEM when N ≧ 3; read-out: sst2 binding affinity (IC50)
Bridge positions count the residues as written; N and C are the ends. Square brackets hold non-standard residues; d marks the D form. Peptide text beside a SMILES is read from it. * marks the point of attachment. Phe(4-NHCONH2) = NC(=O)Nc1ccc(C[C@H](N)C(=O)O)cc1; Phe(4-Cl) = N[C@@H](Cc1ccc(Cl)cc1)C(=O)O; X1 = NC(=O)N[C@@H](Cc1ccc(Cl)cc1)C(=O)*; 2Nal = N[C@@H](Cc1ccc2ccccc2c1)C(=O)O
Respond numerically; units are nM and should not be typed.

Consider the molecule C[C@@H](O)[C@@H]1NC(=O)[C@H](CCCCN)NC(=O)[C@@H](Cc2c[nH]c3ccccc23)NC(=O)[C@H](Cc2ccc(NC(N)=O)cc2)NC(=O)[C@H](NC(=O)[C@H](Cc2ccc(Cl)cc2)NC(N)=O)CSSC[C@@H](C(=O)N[C@@H](Cc2ccc3ccccc3c2)C(N)=O)NC1=O [compound 13] (X1-[dC][Phe(4-NHCONH2)][dW]KTC[2Nal]-NH2; disulfide 1-6) and give its recorded IC50.
23

Identify measured IC50 corresponding to C[C@@H](O)[C@@H]1NC(=O)[C@H](CCCCN)NC(=O)[C@@H](Cc2c[nH]c3ccccc23)NC(=O)[C@H](Cc2ccc(NC(N)=O)cc2)NC(=O)[C@H](NC(=O)[C@@H](N)Cc2ccc(Cl)cc2)CSSC[C@@H](C(N)=O)NC1=O [compound 17] (H-[Phe(4-Cl)][dC][Phe(4-NHCONH2)][dW]KTC-NH2; disulfide 2-7)
5.9

Specify reported IC50 for the molecule shown: C[C@@H](O)[C@@H]1NC(=O)[C@H](CCCCN)NC(=O)[C@@H](Cc2c[nH]c3ccccc23)NC(=O)[C@H](Cc2ccc(NC(N)=O)cc2)NC(=O)[C@H](NC(=O)[C@@H](N)Cc2ccc(Cl)cc2)CSSC[C@@H](C(=O)N[C@H](Cc2ccc(NC(N)=O)cc2)C(N)=O)NC1=O [compound 20]
5.4
